Each entry below carries its reported IC50.
# SYSTEM NAME: UniProt Q9WMX2
# EXPERIMENTAL DETAILS: Hepatitis C polymerase (BB7) inhibition
# Assay type: biochemical

# COMPOUND, SYSTEM NAME, IC50
data = [
    ("CCC[C@@]1(CC(=O)O)OCCc2c1[nH]c1c(C)c(O)cc(C#N)c21", "UniProt Q9WMX2", "500 to 5000 nM"),
    ("CCCC1(CC(=O)O)OCCc2c1[nH]c1c(C)c(COCC3CCC3)cc(C#N)c21 (stereo not shown)", "UniProt Q9WMX2", "500 to 5000 nM"),
    ("CCCC1(CC(=O)O)OCCc2c1[nH]c1c(C)c(OCc3ccc(C)nc3)cc(C#N)c21 (stereo not shown)", "UniProt Q9WMX2", "< 500 nM"),
    ("CCCC1(CC(=O)O)OCCc2c1[nH]c1c(C)c(OCc3ccc(N)nc3)cc(C#N)c21 (stereo not shown)", "UniProt Q9WMX2", "< 500 nM"),
]

----------
# SYSTEM NAME: BB7 RNA-dependent RNA polymerase hepatitis C virus protein (Con1 HCV sequence) (Hepatitis C virus genotype 1b)
# Sequence (Q9WMX2 2420-3010): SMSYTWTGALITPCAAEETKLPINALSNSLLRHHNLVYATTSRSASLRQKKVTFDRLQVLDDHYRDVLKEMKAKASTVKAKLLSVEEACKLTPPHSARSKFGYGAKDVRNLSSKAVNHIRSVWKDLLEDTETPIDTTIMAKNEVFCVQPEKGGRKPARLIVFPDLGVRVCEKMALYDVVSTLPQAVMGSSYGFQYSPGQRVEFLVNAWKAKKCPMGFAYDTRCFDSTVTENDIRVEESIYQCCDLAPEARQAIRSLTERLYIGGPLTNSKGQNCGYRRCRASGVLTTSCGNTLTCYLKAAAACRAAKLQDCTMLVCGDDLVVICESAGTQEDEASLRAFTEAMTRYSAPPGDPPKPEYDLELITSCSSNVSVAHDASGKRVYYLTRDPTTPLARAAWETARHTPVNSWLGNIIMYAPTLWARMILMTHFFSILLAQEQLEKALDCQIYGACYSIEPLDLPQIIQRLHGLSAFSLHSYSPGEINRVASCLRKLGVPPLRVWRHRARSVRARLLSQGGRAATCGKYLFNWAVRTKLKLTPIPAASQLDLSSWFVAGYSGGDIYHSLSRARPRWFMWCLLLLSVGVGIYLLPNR
# EXPERIMENTAL DETAILS: Hepatitis C polymerase (BB7) inhibition
# Format: biochemical
# EXPERIMENTAL PARAMETERS: read-out: BB7 IC50; BB7 (Con1) NS5B
pIC50: −log10 of the molar value.
As shown below, each of these compounds has a reported pIC50 value.

# COMPOUND, pIC50
data = [
    ("CCCC1(CC(=O)O)OCCc2c1[nH]c1c(C)c(OCc3ccncc3)cc(C#N)c21 (centres unmarked)", "> 6.30"),
    ("CCCC1(CC(=O)O)OCCc2c1[nH]c1c(C)c(OCC(C)=NOCC)cc(C#N)c21 (centres unmarked)", "> 6.30"),
]

----------
# SYSTEM NAME: NS5B from the BK strain (genotype 1b) (Hepatitis C virus genotype 1b)
# Construct: NS5B from the BK strain (genotype 1b) is expressed in E coli as a protein in which the 21 C-terminal amino acids are replaced; made in house; host or cells: E. coli
# Sequence (P26663 2420-2989): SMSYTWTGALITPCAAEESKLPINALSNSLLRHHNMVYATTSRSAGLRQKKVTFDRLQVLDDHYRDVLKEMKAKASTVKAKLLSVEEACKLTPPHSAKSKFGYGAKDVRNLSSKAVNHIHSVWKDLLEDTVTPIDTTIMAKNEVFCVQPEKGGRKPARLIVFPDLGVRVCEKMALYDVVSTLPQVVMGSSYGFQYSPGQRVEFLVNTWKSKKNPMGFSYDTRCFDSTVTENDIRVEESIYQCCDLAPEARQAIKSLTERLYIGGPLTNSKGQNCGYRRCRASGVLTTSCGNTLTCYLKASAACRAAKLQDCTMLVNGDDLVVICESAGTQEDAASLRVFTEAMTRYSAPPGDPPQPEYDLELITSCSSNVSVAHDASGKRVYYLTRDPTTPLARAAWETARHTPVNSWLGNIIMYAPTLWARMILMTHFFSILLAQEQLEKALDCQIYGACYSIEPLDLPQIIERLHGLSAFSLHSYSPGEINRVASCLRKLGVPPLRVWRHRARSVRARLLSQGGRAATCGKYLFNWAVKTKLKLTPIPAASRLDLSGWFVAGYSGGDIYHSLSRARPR
# EXPERIMENTAL DETAILS: Hepatitis C polymerase (NS5B, BK strain) inhibition, radioactive filter assay
# Format: biochemical
# EXPERIMENTAL PARAMETERS: NS5B BK strain (genotype 1b)
pIC50: −log10 of the molar value.

# COMPOUND, SYSTEM NAME, pIC50
data = [
    ("CCC[C@]1(CC(=O)O)OCCc2c1[nH]c1c(C)c(OCc3cc(C)on3)cc(C#N)c21", "NS5B from the BK strain (genotype 1b) (Hepatitis C virus genotype 1b)", "> 6.30"),
    ("CCCC1(CC(=O)O)OCCc2c1[nH]c1c(C)c(OCC3CCOCC3)cc(C#N)c21 (centres unmarked)", "NS5B from the BK strain (genotype 1b) (Hepatitis C virus genotype 1b)", "> 6.30"),
    ("CCCC1(CC(=O)O)OCCc2c1[nH]c1c(C)c(OCc3nccn3C)cc(C#N)c21 (centres unmarked)", "NS5B from the BK strain (genotype 1b) (Hepatitis C virus genotype 1b)", "> 6.30"),
    ("CCCC1(CC(=O)O)OCCc2c1[nH]c1c(C)c(OC[C@@H]3CCC(=O)N3)cc(C#N)c21 (some centres unmarked)", "NS5B from the BK strain (genotype 1b) (Hepatitis C virus genotype 1b)", "> 6.30"),
    ("CCCC1(CC(=O)O)OCCc2c1[nH]c1c(C)c(COC(C)C)cc(C#N)c21 (centres unmarked)", "NS5B from the BK strain (genotype 1b) (Hepatitis C virus genotype 1b)", "5.30 to 6.30"),
    ("CCCC1(CC(=O)O)OCCc2c1[nH]c1c(C)c(OCc3ccnc(C(N)=O)c3)cc(C#N)c21 (centres unmarked)", "NS5B from the BK strain (genotype 1b) (Hepatitis C virus genotype 1b)", "> 6.30"),
    ("CCCC1(CC(=O)O)OCCc2c1[nH]c1c(C)c(COCc3ccsc3)cc(C#N)c21 (centres unmarked)", "NS5B from the BK strain (genotype 1b) (Hepatitis C virus genotype 1b)", "5.30 to 6.30"),
    ("CCCC1(CC(=O)O)OCCc2c1[nH]c1c(C)c(O[C@@H]3CCOC3)cc(C#N)c21 (some centres unmarked)", "NS5B from the BK strain (genotype 1b) (Hepatitis C virus genotype 1b)", "> 6.30"),
]

Data origin: patent US20070219212A1
